# Target Or System: T1, NativeRPtag(large)_with_Tags_and_Cys (Thermoanaerobacter tengcongensis)
# T1 chain: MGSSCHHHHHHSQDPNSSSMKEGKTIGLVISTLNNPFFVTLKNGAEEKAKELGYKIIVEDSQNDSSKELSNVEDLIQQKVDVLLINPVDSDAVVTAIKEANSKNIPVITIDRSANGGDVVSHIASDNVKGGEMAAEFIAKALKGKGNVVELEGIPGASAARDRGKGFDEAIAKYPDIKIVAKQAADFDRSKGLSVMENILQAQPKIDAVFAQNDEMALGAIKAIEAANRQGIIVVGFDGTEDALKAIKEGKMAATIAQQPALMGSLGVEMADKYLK
# Assay Text: fluorescence anisotropy; DMSO (20%); DMSO (20%)
Metric Name: Kd
Show the value, then the unit it is measured in.

Prompt: Please look up its Kd: PAELKLITK (modifications not checked) [RPtag(small) Nd8, Cd4]
Completion: 140 nM
